Listing of entries alongside the reported ABSOLUTE BASOPHIL.
Species: Rattus norvegicus
Experiment: DrugMatrix - Regimen: Daily Repeat
Format: toxicity, organism-based, Sprague-Dawley
Parameters: regimen Daily Repeat, gender Male, age 6-8 weeks
Conditions: in vivo, po, 0 mg/kg, 120 h, tissue Blood, route oral GAVAGE, dose level Control, time 5 day, vehicle .5 % CMC
Express the result in CELLS/uL but write the number alone.

Observe how each entry below is paired with its result.
# COMPOUND, READING_UNIT, ABSOLUTE BASOPHIL
records = [
    ("CNC(=C[N+](=O)[O-])NCCSCc1ccc(CN(C)C)o1", "CELLS/uL", 0),
    ("C[C@]1(Cn2ccnn2)[C@H](C(=O)O)N2C(=O)C[C@H]2S1(=O)=O", "CELLS/uL", 0),
    ("Clc1ccc2c(c1)C(N1CCNCC1)=Nc1ccccc1O2", "CELLS/uL", 0),
    ("OC(CCN1CCCCC1)(c1ccccc1)C1CCCCC1 (stereo not given)", "CELLS/uL", 0),
    ("CC(=O)CC(c1ccccc1)c1c(O)c2ccccc2oc1=O (stereo not given)", "CELLS/uL", 0),
]

Per the record, CN1C(=O)COc2c(C(=O)NC3CN4CCC3CC4)cc(Cl)cc21 (stereo not given) has ABSOLUTE BASOPHIL of 0

ABSOLUTE BASOPHIL recorded for this compound, C#C[C@]1(O)CC[C@H]2[C@@H]3CCc4cc(OC)ccc4[C@H]3CC[C@@]21C , is 0

Entry CO[C@H]1/C=C/O[C@@]2(C)Oc3c(C)c(O)c4c(c3C2=O)C2=NC3(CCN(CC(C)C)CC3)NC2=C(NC(=O)/C(C)=C\C=C\[C@H](C)[C@H](O)[C@@H](C)[C@@H](O)[C@@H](C)[C@H](OC(C)=O)[C@@H]1C)C4=O ; ABSOLUTE BASOPHIL = 0

# ABSOLUTE BASOPHIL of CC(C)[C@H]1CC[C@H](C(=O)N[C@H](Cc2ccccc2)C(=O)O)CC1 [NATEGLINIDE] = 0

response.value for C[C@](O)(CS(=O)(=O)c1ccc(F)cc1)C(=O)Nc1ccc(C#N)c(C(F)(F)F)c1 [(R)-BICALUTAMIDE] (field: ABSOLUTE BASOPHIL) = 0
